Each recorded value in this set is attributed to patent US20240116985A1.

# MEASUREMENT NOTES: Solubility in PBS
# Type: physicochemical
PROPERTY MEASURED: Solubility (µM)
Use µM as the unit, but write only the number.

| COMPOUND | Solubility (µM) |
| --- | --- |
| CC(=O)N1CCC[C@]12CC=CCCCC1(CCCC=CCCCCCC[C@@](C)(C(=O)N[C@@H](Cc3ccccc3)C(=O)N[C@@H](Cc3csc4ccccc34)C(=O)N[C@@H](CCC(N)=O)C(N)=O)NC(=O)[C@H](C(C)C)NC(=O)[C@H](Cc3cccc(F)c3F)NC(=O)[C@H](C)NC(=O)[C@H](C)NC(=O)[C@H](CCC(=O)O)NC(=O)[C@H](CC(=O)O)NC1=O)NC(=O)[C@H](C)NC(=O)[C@H](CC(=O)O)NC2=O (some centres unmarked) [I-391] | 10 |
| CC(=O)N1CCC[C@]12CC=CCCCC1(CCCC=CCCCOC(=O)N3CC[C@@](C(=O)N[C@@H](Cc4ccsc4)C(=O)N[C@@H](Cc4csc5ccccc45)C(=O)N[C@@H](CCC(N)=O)C(N)=O)(C3)NC(=O)[C@H]([C@@H](C)O)NC(=O)[C@H](Cc3ccccc3)NC(=O)[C@H](C)NC(=O)[C@H](C)NC(=O)[C@H]([C@@H](C)O)NC(=O)[C@H](CC(=O)O)NC1=O)NC(=O)[C@H](CC1CCCCC1)NC(=O)[C@H](CC(=O)O)NC2=O (some centres unmarked) [I-1173] | 10 |
| CC(=O)N1CCC[C@]12CC=CCCCC1(CCCC=CCCCOC(=O)N3CC[C@@](C(=O)N[C@@H](Cc4ccsc4)C(=O)N[C@@H](Cc4csc5ccccc45)C(=O)N[C@@H](CCC(N)=O)C(=O)N[C@@H](CCCCNC(=O)C(C)(c4ccccc4)c4ccccc4)C(N)=O)(C3)NC(=O)[C@H](CC(N)=O)NC(=O)[C@H](Cc3ccccc3)NC(=O)[C@H](C)NC(=O)[C@H](C)NC(=O)[C@H](CC(=O)O)NC(=O)[C@H](CC(=O)O)NC1=O)NC(=O)[C@H](CC(C)(C)C)NC(=O)[C@H](CC(=O)O)NC2=O (some centres unmarked) [I-904] | 30 |
| CC(=O)N1CCC[C@]12CC=CCCCC1(CCCC=CCCCOC(=O)N3CC[C@@](C(=O)N[C@@H](Cc4ccsc4)C(=O)N[C@@H](Cc4csc5ccccc45)C(=O)N[C@@H](Cc4c[nH]cn4)C(N)=O)(C3)NC(=O)[C@H](CC(C)C)NC(=O)[C@H](Cc3ccccc3)NC(=O)[C@H](C)NC(=O)[C@H](C)NC(=O)[C@H](CC(=O)O)NC(=O)[C@H](CC(=O)O)NC1=O)NC(=O)[C@H](CC(C)(C)C)NC(=O)[C@H](CC(=O)O)NC2=O (some centres unmarked) [I-802] | 10 |

Quick one: give measured Solubility for CC(=O)N1CCC[C@]12CC=CCCCC1(CCCC=CCCCOC(=O)N3CC[C@@](C(=O)N[C@@H](Cc4ccsc4)C(=O)N[C@@H](Cc4csc5ccccc45)C(=O)N[C@@H](CCC(N)=O)C(N)=O)(C3)NC(=O)[C@H](CCCNC(N)=O)NC(=O)[C@H](Cc3ccccc3)NC(=O)[C@H](C)NC(=O)[C@H](C)NC(=O)[C@H](CC(=O)O)NC(=O)[C@H](CC(=O)O)NC1=O)NC(=O)[C@H](CC(C)(C)C)NC(=O)[C@H](CC(=O)O)NC2=O (some centres unmarked) [I-805]
50
